PROCEDURE DETAILS: human hepatoma cell viability loss – ATP luminescence, cytotoxicity control for P. falciparum antimalarial project, primary screen (AID 2303);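 further: 0% = DMSO wells and 100% = digitonin-killed cells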
CONDITION PARAMETERS: HepG2 viability, 24-48 h, at 10 µM
Activity calls are given as the source filed them.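 How the source made its calls: active means inhibition above 50%; inactive means the rest.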
Your answer must be one of the following: active, inactive

Q: Assay result, entry COc1ccc(N(c2nc(-c3cc(Cl)ccc3Cl)cs2)C2CCNC2)cc1 (stereo not given) — outcome?
Result: inactive

Q: Assay result, entry `COc1cc(F)c2nccc([C@@H](O)CN3CCC(NCc4nc5c(F)cccc5[nH]4)CC3)c2c1` — outcome?
Result: inactive

Q: Assay result, entry CCC(C)NC(=O)Nc1cccc(-c2cccc(-c3nc4c(C)cccc4[nH]3)c2)c1 (stereo not given) — outcome?
Result: inactive

Q: Assay result, entry `Cc1cc(N(CCO)CCCN2CCCCC2)nc(Nc2ccc(Cl)cc2)n1` — outcome?
Result: inactive

Q: Assay result, entry CC(C(=O)OCCOCn1cnc2c(=O)[nH]c(N)nc21)N(C)C(=O)OC(C)(C)C (stereo not given) — outcome?
Result: inactive

Q: Assay result, entry `O=C1CCCN1CCCNCc1ccc(-c2ccc(-c3nc4ccc(F)cc4[nH]3)s2)cc1` — outcome?
Result: inactive

Q: Assay result, entry `Cc1cc(C(F)(F)F)n2nc(C(=O)N(Cc3cncn3Cc3cccc(F)c3)CC3CC3)cc2n1` — outcome?
Result: inactive

Q: Assay result, entry `Cc1ccc2c(Cc3cnc(N)nc3N)cc(C)c(N)c2n1` — outcome?
Result: inactive

Q: Assay result, entry `O=C(/C=C/c1ccc(C(F)(F)F)cc1)NCCCCCN1CCCN(C(=O)Nc2ccc(Cl)c(Cl)c2)CC1` — outcome?
Result: active

Q: Assay result, entry `N#Cc1cncc(-c2nc3c(N4CCN(c5cnccn5)CC4)cccc3n2CCNCc2ccccc2)c1` — outcome?
Result: inactive

====

TARGET: Calcium-dependent protein kinase 1 (Plasmodium falciparum (isolate 3D7)) (UniProt P62344)
Sequence (P62344 whole entry, looked up): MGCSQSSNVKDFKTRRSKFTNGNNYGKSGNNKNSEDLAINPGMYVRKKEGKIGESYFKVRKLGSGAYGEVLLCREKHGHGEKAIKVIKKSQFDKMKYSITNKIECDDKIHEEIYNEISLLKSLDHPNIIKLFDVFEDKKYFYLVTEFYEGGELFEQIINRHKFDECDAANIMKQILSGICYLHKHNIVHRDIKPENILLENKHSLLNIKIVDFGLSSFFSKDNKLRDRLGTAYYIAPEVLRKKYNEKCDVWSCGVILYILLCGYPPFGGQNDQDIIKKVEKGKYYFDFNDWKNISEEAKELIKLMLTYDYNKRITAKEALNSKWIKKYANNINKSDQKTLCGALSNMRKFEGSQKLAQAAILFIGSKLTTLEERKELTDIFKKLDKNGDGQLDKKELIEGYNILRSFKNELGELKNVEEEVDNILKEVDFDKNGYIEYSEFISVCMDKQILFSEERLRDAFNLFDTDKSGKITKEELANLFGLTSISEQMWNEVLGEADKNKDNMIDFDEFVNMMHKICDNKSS
PROCEDURE DETAILS: PfCDPK1 kinase inhibitors, biochemical, TCAMS library (AID 1159585);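 further: inhibitors leave more ATP so luminescence rises with inhibition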
CONDITION PARAMETERS: recombinant PfCDPK1, Kinase-Glo ATP depletion luminescence
Potency and affinity values are given separately. Calls of active or inactive are those of the source. The limit is not given here; nearly all actives have IC50 up to about 0.98 µM.
ENDPOINT LABEL: outcome

# annotated cases, reported outcome shown
1. COc1ccc2nccc(NC(=O)C3(O)CCC(NCc4ncc5c(c4Cl)OCCO5)CC3)c2n1 (stereo not given) | inactive
2. Oc1ccc(CNCCCCCCNCCc2ccc(Cl)cc2)cc1O | inactive
3. COc1ccc2nccc([C@@H](O)CN3CCC(NCc4cc5cccc(O)c5[nH]4)CC3)c2c1 | inactive
4. CCn1ccc2c(N3CCCS3(=O)=O)cc(C(=O)N[C@@H](Cc3ccccc3)[C@H](O)CNC3CCCCC3)cc21 | inactive

// moving on: another record for outcome
Entry under test: `COc1cc(F)c2ncc(Cl)c(CCN3CCC(NCc4cc5c(cn4)OCCO5)CC3)c2c1` . Its outcome was inactive

====

PROCEDURE DETAILS: human hepatoma cell viability loss – ATP luminescence, cytotoxicity control for P. falciparum antimalarial project, primary screen (AID 2303);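 further: 0% = DMSO wells and 100% = digitonin-killed cells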
CONDITION PARAMETERS: HepG2 viability, 24-48 h, at 10 µM, stronger effect = higher value
Exercise: state measured inhibition for each of the compounds provided.
Value expressed in %; do not type the unit.

Entry under test: CCCc1cc(OC)c(CC2c3cccc(O)c3CCN2C)cc1OC (stereo not given) . Its inhibition was 3

Entry under test: COc1cc(CC2c3cc(O)c(Cl)cc3CCN2C)c(OC)cc1C (stereo not given) . Its inhibition was 10

Entry under test: `CCNc1cc(C(=O)N[C@@H](Cc2ccco2)[C@H](O)CNC2CCCCC2)cc(N2CCCCS2(=O)=O)c1` . Its inhibition was 14

Entry under test: `CCOC(=O)[C@H](Cc1cccc2ccccc12)NC(=O)[C@H](CCC(=O)OC(C)(C)C)NC(=O)c1ccc(N(C)Cc2cnc3nc(N)nc(N)c3n2)cc1` . Its inhibition was 66

Entry under test: Cc1cc(C)c(O)c(-c2cc(C(=O)Nc3ccc(S(=O)(=O)N4CC(C)OC(C)C4)cc3)[nH]n2)c1 (stereo not given) . Its inhibition was 31

====

PROCEDURE DETAILS: inhibition of 3D7 malaria parasite growth – strain 3D7 (AID 2306);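 further: 0% = DMSO wells and 100% = chloroquine plus artemisinin control wells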
CONDITION PARAMETERS: P. falciparum 3D7 erythrocytic growth, LDH absorbance, 72 h; at 2 µM; stronger effect = higher value
ENDPOINT LABEL: growth inhibition (%)
Value expressed in %; do not type the unit.

Entry under test: Cc1cc(CNCC2CCC(CNCCCc3ccccc3)CC2)ccc1O (stereo not given) . Its growth inhibition was 101

Entry under test: `CCc1ccc(C2CCN(CCCCNC(=O)c3ccc(-c4ccc(Cl)cc4)cc3)CC2)c(O)c1` . Its growth inhibition was 101

Entry under test: COc1ccc(C2SCC(=O)N2CCc2ccc(OC)c(OC)c2)cc1 (stereo not given) . Its growth inhibition was 96

Entry under test: `CN1CCN(c2ccnc3ccc(NC(=O)Nc4ccc(-c5ccncc5)c(C#N)c4)cc23)CC1` . Its growth inhibition was 101

Entry under test: COc1ccc(-n2ccnc2)cc1CNC1CCN(CC2Cn3c(=O)ccc4ccc(F)c2c43)CC1 (stereo not given) . Its growth inhibition was 99

Entry under test: `COc1ccc(-c2ccc(CNC(=O)c3cccc(C#N)c3)c(F)c2)cc1CN1CCCN(C)CC1` . Its growth inhibition was 99

Entry under test: `Nc1nc(N)c2c(Cl)c(CNc3cccc(C(=O)O)c3)ccc2n1` . Its growth inhibition was 93

Entry under test: `O=C(Nc1ccc(-c2cccc(-c3nc4ccc(F)cc4[nH]3)c2)cc1)c1ccncc1` . Its growth inhibition was 96

Entry under test: `CCc1sc(-c2ccc(C(C)(C)C)cc2)nc1C(=O)NCCCN1CCCC1=O` . Its growth inhibition was 84

Entry under test: CC1(C)C(=O)Nc2ccc3c(c21)CC1SC(=O)NN=C31 (stereo not given) . Its growth inhibition was 96

====

TARGET: Calcium-dependent protein kinase 4 (Plasmodium falciparum (isolate 3D7)) (UniProt Q8IBS5)
Sequence (Q8IBS5 whole entry, looked up): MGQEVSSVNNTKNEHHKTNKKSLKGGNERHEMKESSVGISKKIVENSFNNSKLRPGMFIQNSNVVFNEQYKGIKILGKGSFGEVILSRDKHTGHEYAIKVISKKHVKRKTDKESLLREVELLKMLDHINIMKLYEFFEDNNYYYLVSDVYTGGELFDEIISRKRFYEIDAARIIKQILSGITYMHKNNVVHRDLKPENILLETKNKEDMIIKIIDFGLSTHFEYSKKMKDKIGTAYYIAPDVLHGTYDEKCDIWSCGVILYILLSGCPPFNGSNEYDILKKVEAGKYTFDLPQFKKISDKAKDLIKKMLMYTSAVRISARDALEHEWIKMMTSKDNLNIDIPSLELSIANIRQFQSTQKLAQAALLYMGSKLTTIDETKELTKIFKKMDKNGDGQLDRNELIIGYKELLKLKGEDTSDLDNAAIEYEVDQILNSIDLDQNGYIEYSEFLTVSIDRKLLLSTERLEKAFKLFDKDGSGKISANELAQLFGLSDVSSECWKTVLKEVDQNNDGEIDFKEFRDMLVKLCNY
PROCEDURE DETAILS: PfCDPK4 kinase inhibitors, biochemical, TCAMS library (AID 1159588)
CONDITION PARAMETERS: recombinant PfCDPK4, Kinase-Glo ATP depletion luminescence
Entries with a potency or affinity are not part of this list. Calls of active or inactive are those of the source. Cut-off not given; nearly all actives show IC50 up to about 0.91 µM.
ENDPOINT LABEL: outcome

# annotated cases, reported outcome shown
1. Fc1ccc2nc(-c3cccc(-c4ccc(CNCCN5CCNCC5)cc4)c3)[nH]c2c1 | inactive
2. NC(=O)c1ccccc1OCC(=O)Nc1cccc(-c2cccc(-c3nc4ccccc4[nH]3)c2)c1 | inactive
3. Nc1ccnc2ccc(OCCCCCCc3ccccc3)cc12 | inactive
4. COc1ccc(C2c3cc(OC)c(OC)cc3C(=NO)C2C)cc1OC (stereo unspecified) | inactive
5. CC(C)(C)c1ccc2nc(-c3ccc(C(=O)NCCCc4ccccc4)cc3)[nH]c2c1 | inactive
6. CCc1ccc(C2CCN(CCCCNC(=O)c3ccc(NC(=O)c4ccc(Cl)cc4)cc3)CC2)c(OCCO)c1 | inactive

Entry under test: `CCCN(CCC)CCCN(CCCN(CCC)CCC)c1cc(C)nc(Nc2ccc(Cl)cc2)n1` . Its outcome was inactive

Entry under test: CN1CCN(C(=O)CN2CCC3(CCC2=O)NC(=O)c2ccccc2O3)CC1 (stereo unspecified) . Its outcome was inactive

Entry under test: `CN1CCC(NCc2ccc(-c3ccc(Cl)cc3)cc2)CC1` . Its outcome was inactive

Entry under test: `COc1ccc(CNCc2ccc(-c3ccc(-c4nc5c(C)cccc5[nH]4)cc3)cc2)cc1` . Its outcome was inactive

Entry under test: O=C(/C=C/c1ccc(Cl)c(Cl)c1)NC1CCC(CN2CCC(c3nc4ccccc4n3CCCO)CC2)CC1 (stereo unspecified) . Its outcome was inactive

Entry under test: `CC(C)[C@@H]1c2ccc(O)cc2C[C@H]2C(=O)N(C3CCCCC3)C(=O)N21` . Its outcome was inactive

====

PROCEDURE DETAILS: antimalarial activity against Dd2 strain (AID 2302);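 further: 0% = DMSO untreated growth and 100% = chloroquine plus artemisinin killed control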
CONDITION PARAMETERS: P. falciparum Dd2 in RBCs, LDH growth readout, 72 h; at 2 µM
The source made the active and inactive calls.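 How the source made its calls: active means growth inhibition above 50% at the single 2 µM test dose, taken to imply half-maximal potency below 2 µM; inactive means the rest.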
Your answer must be one of the following: label 1 for active, label 0 for inactive

Q: Assay result, entry O=C(NCC1CCC(C(=O)NCc2cccc(C(F)(F)F)c2)CC1)c1ccc(O)c(-c2ccc(Cl)c(Cl)c2)c1 (configuration not stated) — outcome?
Result: label 0

Q: Assay result, entry `COc1ccc(CN(C)CCCc2ccc(NC(=O)c3cccc4c(=O)c5cccc(F)c5[nH]c34)cc2)cc1OC` — outcome?
Result: label 1

Q: Assay result, entry `COC(=O)c1cccc(CNCc2ccc(-c3cccc(-c4nc5ccccc5[nH]4)c3)cc2)c1` — outcome?
Result: label 0

Q: Assay result, entry Cc1cccc2[nH]c(-c3cccc(-c4ccc(NC(=O)CC5NC(=O)c6ccccc65)cc4)c3)nc12 (configuration not stated) — outcome?
Result: label 1

Q: Assay result, entry `COc1cccc2cc(C(=O)N[C@@H](CC(C)C)C(=O)N[C@H](/C=N/NC(=O)N3CCN(C)CC3)CCc3ccccc3)oc12` — outcome?
Result: label 1

Q: Assay result, entry `COc1ccc2c(CCNc3nc(SC)ncc3C(=O)NCCc3ccc(F)cc3)c[nH]c2c1` — outcome?
Result: label 0

Q: Assay result, entry `Cc1[nH]c(C)c(-c2ccc(Oc3cccc(Cl)c3)cc2)c(=O)c1Cl` — outcome?
Result: label 1

Q: Assay result, entry `CC(C)CCn1c(Sc2ccc(C#N)c([N+](=O)[O-])c2)nnc1-c1ccccc1Cl` — outcome?
Result: label 0

Q: Assay result, entry O=C(C=Cc1ccc(Cl)c(Cl)c1)NCCCCCN1CCCC(CCCNS(=O)(=O)c2cccc3cccnc23)C1 (configuration not stated) — outcome?
Result: label 0

Q: Assay result, entry `CC(C)NC(C)(C)CN(Cc1ccc(-c2ccc(C(F)(F)F)cc2)cc1)C(=O)Cn1c(CCc2cccc(F)c2F)nc(=O)c2ccccc21` — outcome?
Result: label 1

Q: Assay result, entry `COc1ccc2nccc([C@@H](O)CN3CC[C@H](NCc4cnc5c(c4)NC(=O)CS5)[C@H](F)C3)c2c1` — outcome?
Result: label 1

Q: Assay result, entry `CO/C(=C\C=C\c1cc2cc(Cl)c(Cl)cc2[nH]1)C(=O)NC1CCN(CCCc2ccccc2)CC1` — outcome?
Result: label 1

Q: Assay result, entry `O=C(Nc1ccc(C(=O)N2CCN(CCN3CCN(c4cccc(C(F)(F)F)c4)CC3)CC2)cc1)c1cc(Cl)cc(Cl)c1` — outcome?
Result: label 0

Q: Assay result, entry `CN1CCN(S(=O)(=O)c2cccc(Nc3nccc(N(C)c4ccc5c(c4)nc(NC(=O)c4cccs4)n5C)n3)c2)CC1` — outcome?
Result: label 1

Q: Assay result, entry `O=C(Nc1cccc(-c2cccc(-c3nc4ccccc4[nH]3)c2)c1)c1cccnc1` — outcome?
Result: label 0

Q: Assay result, entry O=C(NC1CCC(N2CCCC(OCc3ccccc3)C2)CC1)c1cc2ccccc2[nH]1 (configuration not stated) — outcome?
Result: label 0

Q: Assay result, entry CC(NC(=O)NC1CCC(CCN2CCCc3ccccc32)CC1)c1cccc2ccccc12 (configuration not stated) — outcome?
Result: label 1
